Collected pIC50 for UniProtKB P00742 across several studies; molecules listed below.
pIC50: −log10 of the molar value.

I have this molecule here, O=C(NCc1cccnc1)c1nn(-c2cccc(Cl)c2)c2c1CCN(c1ccc3c(c1)CN(CCO)CC3)C2=O , and I need its recorded pIC50.
5.00 to 5.52

Endpoint output: pIC50 of CCNC(=O)c1nn(-c2cc(Cl)cc(COC)c2)c2c1CCN(c1ccc3c(c1)C(=O)N(C)CC3)C2=O . Value?
< 4.40

Look up pIC50: CN1CCc2ccc(N3CCc4c(C(=O)NCc5cc(C6CC6)n[nH]5)nn(-c5cccc(Cl)c5)c4C3=O)cc2C1=O
< 4.40

Query (molecule): Nc1nccc2c(NCC34CC(COc5cn6ccnc6cn5)(CO3)C4)cccc12 ; field requested: pIC50
< 4.40

// pIC50 lookup, key: CN1CCc2ccc(N3CCc4c(C(=O)NCC5CC5)nn(-c5cccc(Cl)c5)c4C3=O)cc2C1
4.40 to 5.00

May I ask what pIC50 has been recorded for Nc1nccc2c(NCc3ccc(OCC4CCn5ccnc5C4)nc3)cccc12 (single isomer, unassigned) ?
4.40 to 5.00

Please look up its pIC50: CCNC(=O)c1nn(-c2cccc(Cl)c2)c2c1CCN(c1cccc(N3CC4CC4C3=O)c1)C2=O (stereo not shown)
< 4.40

* * *

Please find below IC50 measurements for Coagulation factor X (Homo sapiens, UniProt P00742), combined from several publications.

So what IC50 did CCNC(=O)c1nn(-c2cccc(Cl)c2)c2c1CCN(c1ccc3c(c1)C(=O)N(C)CC(=O)N3C)C2=O get with Coagulation factor X (Homo sapiens, UniProt P00742)?
> 40 µM

Identify the measured IC50 of Nc1nccc2c(NCC34CC(COc5ccc6nc(C(F)(F)F)cn6n5)(CO3)C4)cccc12 for Coagulation factor X (Homo sapiens, UniProt P00742).
> 40 µM

Write down the reported IC50 of CC(C)N1CCc2ccc(N3CCc4c(C(=O)NCc5ccccc5)nn(-c5cccc(Cl)c5)c4C3=O)cc2C1 , test system: Coagulation factor X (Homo sapiens, UniProt P00742).
3 to 10 µM

Query for Coagulation factor X (Homo sapiens, UniProt P00742): what IC50 does the record show for CCN1CCOc2ccc(N3CCc4c(C(=O)NCc5cc(C)[nH]n5)nn(-c5cccc(Cl)c5)c4C3=O)cc2C1=O ?
3 to 10 µM

Query for Coagulation factor X (Homo sapiens, UniProt P00742): what IC50 does the record show for CN1CCc2ccc(N3CCc4c(C#N)nn(-c5cccc(Cl)c5)c4C3=O)cc2C1=O ?
1 to 3 µM

So what IC50 did CN1CCc2ccc(N3CCc4c(C(=O)NCC5CC5)nn(-c5cc(Cl)cc(C#N)c5)c4C3=O)cc2C1=O get with Coagulation factor X (Homo sapiens, UniProt P00742)?
> 40 µM

Please tell me: IC50 of Cc1cc(CNC(=O)c2nn(-c3cccc(Cl)c3)c3c2CCN(c2ccc4c(c2)C(=O)N(CC(N)=O)CC4)C3=O)n[nH]1 , system Coagulation factor X (Homo sapiens, UniProt P00742)?
1 to 3 µM

Could you share what IC50 was measured for Cc1cc(OCC23CCOC(CNc4cccc5c(N)nccc45)(C2)C3)cc(=O)n1C , tested on Coagulation factor X (Homo sapiens, UniProt P00742)?
10 to 40 µM

// fetch Coagulation factor X (Homo sapiens, UniProt P00742) IC50 for CC1c2nnc(C(F)(F)F)n2CCN1c1ccc(CNc2cccc3c(N)nccc23)cn1 (stereo not shown)
> 40 µM

What value of IC50 on Coagulation factor X (Homo sapiens, UniProt P00742) does O=C(NCc1ncco1)c1nn(-c2cccc(Cl)c2)c2c1CCN(c1ccc3c(c1)CN(CCO)CC3)C2=O have?
10 to 40 µM

What value of IC50 on Coagulation factor X (Homo sapiens, UniProt P00742) does C[C@@H](NC(=O)c1nn(-c2cccc(Cl)c2)c2c1CCN(c1ccc3c(c1)CN(CCO)CC3)C2=O)c1cccnc1 have?
10 to 40 µM

Form: Entry = Cc1c(Cl)c(CNC(=O)c2nn(-c3cccc(Cl)c3)c3c2CCN(c2ccc4c(c2)C(=O)N(CC(N)=O)CCO4)C3=O)nn1C | System = Coagulation factor X (Homo sapiens, UniProt P00742) | IC50 = ____
0.3 to 1 µM

// lookup IC50 | system=Coagulation factor X (Homo sapiens, UniProt P00742) | key= Nc1nccc2c(NCC34CC(COc5ccc6nnc(C(F)F)n6n5)(CO3)C4)cccc12
> 40 µM

Provide value of IC50 for this record tested with Coagulation factor X (Homo sapiens, UniProt P00742): CN1CCc2ccc(N3CCc4c(C(=O)NCc5cccnc5)nn(-c5cccc(Cl)c5)c4C3=O)cc2C1
10 to 40 µM

Write down the reported IC50 of Cc1ccncc1CNC(=O)c1nn(-c2cccc(Cl)c2)c2c1CCN(c1cccc(CN3CCCCC3)c1)C2=O , test system: Coagulation factor X (Homo sapiens, UniProt P00742).
> 40 µM

Under Coagulation factor X (Homo sapiens, UniProt P00742): IC50 value of Cn1ccc(OCC23CN(CCCc4ccccc4)C(CNc4cccc5c(N)nccc45)(C2)C3)cc1=O ?
> 40 µM
